Where do these numbers come from? They come from paper PMC9482650.

pKd values by entry
targetSystem: T1, LIN7C, Q9NUP9
T1 sequence (Q9NUP9 88-185, limits assumed, looked up): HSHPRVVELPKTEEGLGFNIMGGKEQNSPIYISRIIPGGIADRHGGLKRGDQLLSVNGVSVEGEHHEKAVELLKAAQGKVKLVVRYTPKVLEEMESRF
assayProcedure: holdup assay
Design: key: below the threshold = too weak to quantify, mostly under pKd 3.1 to 4
cond: plain residues with an end cap or a label only (N-terminal biotin on a linker: ahx)
Please give only the number in your answer, with no unit.

> print(dat)
                      binder  measurementkind  assayresult
1  GYDWGPATDL [TJP3, O95049]              pKd         3.71

Inquiry: So what's the measured pKd for this one? TVICWPGSLV [LNX2, Q8N448]
Reply text: 4.98
